- targetOrSystem: Dihydroorotate dehydrogenase (quinone), mitochondrial (Homo sapiens)
- Sequence (Q02127 whole entry): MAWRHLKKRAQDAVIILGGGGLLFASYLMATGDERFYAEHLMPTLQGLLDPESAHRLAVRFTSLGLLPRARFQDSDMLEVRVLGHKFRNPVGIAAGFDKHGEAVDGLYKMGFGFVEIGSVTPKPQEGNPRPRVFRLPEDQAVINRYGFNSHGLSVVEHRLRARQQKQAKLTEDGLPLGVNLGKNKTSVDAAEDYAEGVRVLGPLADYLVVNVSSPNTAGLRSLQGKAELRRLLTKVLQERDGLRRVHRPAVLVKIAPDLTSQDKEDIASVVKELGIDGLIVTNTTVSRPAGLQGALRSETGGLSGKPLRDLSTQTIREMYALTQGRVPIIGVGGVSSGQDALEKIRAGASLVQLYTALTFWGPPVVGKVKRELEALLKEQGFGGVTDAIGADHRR
- assaySummary: Inhibition of human N-terminal SUMO-tagged DHODH expressed in Escherichia coli BL21(DE3) at 100 nM using dihydroorotate as substrate by DCIP based microplate reader analysis relative to control
measuredEndpoint: inhibition (%)

1. COc1cccc(-c2cc(F)c(NC(=O)/C(C#N)=C(/C)O)cc2OC(C)C)c1 = 87.7
2. CCC(C)Oc1cc(NC(=O)/C(C#N)=C(/C)O)c(F)cc1-c1cccc(OC(F)(F)F)c1 (stereo not given) = 92.4
3. COc1cccc(-c2cc(F)c(NC(=O)/C(C#N)=C(/C)O)cc2OCC2CCCCC2)c1 = 64

I: COc1cccc(-c2cc(F)c(NC(=O)/C(C#N)=C(/C)O)cc2OCc2ccccc2F)c1
II: CCC(C)Oc1cc(NC(=O)/C(C#N)=C(/C)O)c(F)cc1-c1ccc(F)cc1 (stereo not given)
Pick one: I or II . Which has the bigger inhibition number? State the label of the item chosen.
II
(II: 72.5%, I: 48.3%)
